# measurement target: full-length beta-Catenin (Uniprot ID P35222) (Homo sapiens (Human)) (UniProt P35222)
# test: fluorescence polarization competition against 5FAM-TCF4 10-53 on full-length beta-catenin
Starred links: 1 amine or outer side, 2 acyl side, 3 side chain; linkers in the order of their positions; H or OH if unused. Positions of bridges follow the written chain, without caps; N, C: chain ends. Non-standard residues stand in square brackets, D forms with d. Primed or numbered codes have the meaning given here. (CMe2CO2H)TriAzDap = (S)-2-amino-3-(4-(2-carboxypropan-2-yl)-1H-1,2,3-triazol-1-yl)propanoic acid, CC(C)(C(=O)[*:3])c1cn(C[C@H](N[*:1])C(=O)[*:2])nn1; PyrS2″ = (S)-3-amino-1-((pent-4-en-1-yloxy)carbonyl)pyrrolidine-3-carboxylic acid (stapling residue), C=CCCCOC(=O)N1CC[C@@](N[*:1])(C(=O)[*:2])C1; B5(4) = 2,2-bis(4-pentenyl)glycine = 2-amino-2-(pent-4-en-1-yl)hept-6-enoic acid (stitching residue), C=CCCCC(CCCC=C)(N[*:1])C(=O)[*:2]; B5(5) = 2,2-bis(4-pentenyl)glycine, 2-amino-2-(pent-4-en-1-yl)hept-6-enoic acid (stitching residue), C=CCCCC(CCCC=C)(N[*:1])C(=O)[*:2]; TfeGA = (S)-2-amino-3-((carboxymethyl)(2,2,2-trifluoroethyl)amino)propanoic acid, O=C([C@H](CN(CC(=O)[*:3])CC(F)(F)F)N[*:1])[*:2]; PyrS2 = (S)-3-amino-1-((pent-4-en-1-yloxy)carbonyl)pyrrolidine-3-carboxylic acid, C=CCCCOC(=O)N1CC[C@@](N[*:1])(C(=O)[*:2])C1; (3C)TriAzLys = (S)-2-amino-6-(4-propyl-1H-1,2,3-triazol-1-yl)hexanoic acid, CCCc1cn(CCCC[C@H](N[*:1])C(=O)[*:2])nn1; B5(19) = 2-amino-2-(pent-4-en-1-yl)hept-6-enoic acid (bis(4-pentenyl)glycine), C=CCCCC(CCCC=C)(N[*:1])C(=O)[*:2]; MorphAsn = (S)-2-amino-4-morpholino-4-oxobutanoic acid, O=C(C[C@H](N[*:1])C(=O)[*:2])N1CCOCC1; B5(3) = 2,2-bis(4-pentenyl)glycine (stitching residue), C=CCCCC(CCCC=C)(N[*:1])C(=O)[*:2]; Phe(F5) = N[C@@H](Cc1c(F)c(F)c(F)c(F)c1F)C(=O)O; Phe(3-COOH) = N[C@@H](Cc1cccc(C(=O)O)c1)C(=O)O; 2F3MeF = Cc1cccc(C[C@H](N[*:1])C(=O)[*:2])c1F; Phe(2-CF3) = N[C@@H](Cc1ccccc1C(F)(F)F)C(=O)O; Bta = N[C@@H](Cc1csc2ccccc12)C(=O)O; Lys(iPr) = CC(C)NCCCC[C@H](N)C(=O)O; αAllylPro = C=CC[C@@]1(C(=O)O)CCCN1; tBuAla = CC(C)(C)C[C@H](N)C(=O)O; 3Thi = N[C@@H](Cc1ccsc1)C(=O)O; hLeu = CC(C)CC[C@H](N)C(=O)O; hSer = N[C@@H](CCO)C(=O)O; Nle = CCCC[C@H](N)C(=O)O
IC50: recorded values

binder	units	IC50
Ac-[αAllylPro]N[tBuAla][B5(4)]DT[Lys(iPr)]AFN[PyrS2]F[Bta]Q-NH2 (staple 1-4, 4-11) [I-1602]	µM	0.362
Ac-[αAllylPro]D[tBuAla][B5(4)]DDAAFL[PyrS2″][3Thi][Bta][(3C)TriAzLys]-NH2 (staple 1-4, 4-11) [I-2375]	µM	0.005
{3‑(allyloxy)benzoyl}-PD[tBuAla][B5(5)]D[TfeGA]AAFL[PyrS2″][3Thi][Bta]Q-NH2 (staple 4-11, N-4; also: -CH=CH- in each staple reduced to -CH2-CH2-) [I-2377]	µM	0.978
Ac-[αAllylPro]D[tBuAla][B5(5)]D[Phe(3-COOH)]AAFL[PyrS2″][Phe(2-CF3)][Bta]QLV-NH2 (staple 1-4, 4-11) [I-2379]	µM	0.245
Ac-[αAllylPro]D[tBuAla][B5(4)]NTAAF[Nle][PyrS2″][3Thi][Bta]Q-NH2 (staple 1-4, 4-11) [I-1619]	µM	1.29
Ac-[αAllylPro]D[tBuAla][B5(4)]NTAAF[hLeu][PyrS2″][3Thi][Bta]Q-NH2 (staple 1-4, 4-11) [I-1620]	µM	2.06
Ac-[αAllylPro]D[tBuAla][B5(3)]D[Phe(3-COOH)]AAFL[PyrS2″][2F3MeF][Bta][MorphAsn]-NH2 (staple 1-4, 4-11) [I-1614]	µM	0.015
Ac-[αAllylPro]D[tBuAla][B5(19)]D[Phe(F5)]AAF[hSer][PyrS2][3Thi][Bta]Q-NH2 (staple 1-4, 4-11) [I-1791]	µM	0.182
Ac-[αAllylPro]D[tBuAla][B5(4)]D[(CMe2CO2H)TriAzDap]QAFL[PyrS2″][Phe(2-CF3)][Bta]A-NH2 (staple 1-4, 4-11) [I-2369]	µM	0.014
